Catalogue of mass density values
condition-label: 303.15 K; 30000 kPa; Liquid; Vibrating tube method
Express it in kg/m3; write the number only.

Completed entries (count: 5):
{"columns": ["compound", "mass density, kg/m3"],
 "data": [
  ["CO", 807.78],
  ["C=C(C)C(=O)OCCN(C)C [2-(dimethylamino)ethyl methylpropenoate]", 944.74],
  ["CCCCO", 822.58],
  ["CCO", 804.72],
  ["CCCCCO", 827.74]
]}

The record that follows has no mass density shown yet.
(Q) Consider the compound shown here: `CCCO` What is its recorded mass density?
(A) 817.38

###

Reported mass density by item:
condition-label: 293.15 K; 35000 kPa; Liquid; Vibrating tube method
Numbers only; they are read as kg/m3.

{"columns": ["compound", "mass density / kg/m3"],
 "data": [
  ["CCCCO", 831.99],
  ["CCCO", 827.21]
]}

(Q) Look up mass density: C=C(C)C(=O)OCCN(C)C [2-(dimethylamino)ethyl methylpropenoate]
(A) 956.52

(Q) Need mass density, item `CCO`
(A) 815.49

(Q) Which mass density is reported for this compound? `CCCCCO`
(A) 837.11

(Q) Query (compound): `CO` ; field requested: mass density
(A) 819.89

###

Measured mass density, listed per entry for reference.
condition-label: 313.15 K; 20000 kPa; Liquid; Vibrating tube method
Your answer is read as kg/m3, so omit the unit and give the number.

Examples with answers:
{"columns": ["compound", "unit-of-measurement", "mass density"],
 "data": [
  ["CCCCCO", "kg/m3", 815.06],
  ["CO", "kg/m3", 791.38]
]}

Consider the additional compound presented here.
(Q) Consider the compound shown here: C=C(C)C(=O)OCCN(C)C [2-(dimethylamino)ethyl methylpropenoate] What is its recorded mass density?
(A) 929.71
